I'd appreciate it if you could supply GI50 values for the items below.
system: SK-MEL-28; assay: NCI tumour cell line growth inhibition, 48 h
Active and inactive are the calls of the source. Rule as the data show it: active = GI50 up to about 1.1 µM and inactive = higher.

Record excerpt, results attached:
[ask] Check the records and state GI50 for O=C(Nc1ccccc1Cl)c1ccc([N+](=O)[O-])cc1
[reply] > 100 µM (inactive)

[ask] Return GI50 (reported value) for this compound: COc1ccc2c(c1)[n+]([O-])c(-c1c(Cl)cccc1Cl)c(N)[n+]2[O-]
[reply] 29.9 µM (inactive)

[ask] Identify the reported GI50 for the following entry. N/C(=N\c1cccc(Cl)c1)c1ccccc1N
[reply] > 100 µM (inactive)

Fill in GI50 for each of the 2 compounds listed.
1. CC(=O)O[C@H]1CC[C@@]2(C)C(=CC[C@H]3[C@@H]4C/C(=C\c5ccncc5)[C@H](OC(C)=O)[C@@]4(C)CC[C@@H]32)C1
2. O=C(N/N=C\c1cccc(O)c1)c1ccncc1

[reply]
["5.74 µM (inactive)", "> 100 µM (inactive)"]

Give GI50 for all compounds that follow.
1. c1ccc(CSc2nc3ccccc3nc2-c2cccs2)cc1
2. CN(/N=C/c1cccc2cccnc12)c1ccccc1
3. COC(=O)[C@]1(C)CCC[C@]2(C)[C@@H](CCC(=O)C(C)C)[C@]3(C=O)O[C@@H]3C[C@H]21
4. COc1cc([C@@H]2c3cc4c(cc3[C@@H](NC(=O)c3ccc(C(C)=O)cc3)C3COC(=O)[C@@H]32)OCO4)cc(OC)c1O (stereo not given in full)
5. CC(=O)c1cnc2oc3ccc(O)cc3c2c1-c1ccccc1

[reply]
["> 100 µM (inactive)", "> 100 µM (inactive)", "> 100 µM (inactive)", "2.98 µM (inactive)", "17.5 µM (inactive)"]
